These data points were gathered from patent US10213415B2.

Target under test: mu opioid receptor (Rattus norvegicus, UniProt P33535)
Construct: from tissue; host or cells: forebrain of male Wistar rats
Sequence (P33535 whole entry): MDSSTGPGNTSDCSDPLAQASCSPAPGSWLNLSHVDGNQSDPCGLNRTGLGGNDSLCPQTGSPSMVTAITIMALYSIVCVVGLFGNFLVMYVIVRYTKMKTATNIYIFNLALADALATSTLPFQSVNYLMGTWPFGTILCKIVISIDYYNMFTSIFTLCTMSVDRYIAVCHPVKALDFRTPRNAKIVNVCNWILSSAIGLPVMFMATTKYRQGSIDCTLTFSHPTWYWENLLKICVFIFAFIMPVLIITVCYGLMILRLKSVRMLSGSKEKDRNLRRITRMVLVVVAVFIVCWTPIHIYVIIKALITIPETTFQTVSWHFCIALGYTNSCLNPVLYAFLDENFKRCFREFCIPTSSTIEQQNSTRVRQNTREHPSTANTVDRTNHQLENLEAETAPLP
Experiment summary: Rat Brain Mu Opioid Receptor Binding Assay (and Version 2a, [3H]DAMGO)
Condition notes: rat forebrain membranes, margin of error 10-20%, read-out: r Ki μ
Mark Criterion met for Ki under 1 nM, Criterion not met if at or over.

Input: Given the entry COc1ccc(CN(C(=O)[C@@H](N)Cc2c(C)cc(O)cc2C)[C@@H](C)c2nc(-c3ccccc3)c[nH]2)c2ccccc12 , would its reported Ki be below 1 nM?
Output: Criterion met

Input: Given the entry COc1ccc(CN(C(=O)[C@@H](N)Cc2c(C)cc(C(N)=O)cc2C)[C@@H](C)c2nc(-c3ccccc3)c[nH]2)cc1OC , would its reported Ki be below 1 nM?
Output: Criterion met
